Test system: Soybeans (Glycine max)
protocol-details: Seed application on soybeans in pouch, plant growth effects (shoot length, root system)
Format: in vivo
run-conditions: AI concentration 5 ppm, 14 days, additional growth vs blank formulation check
Let's look at some molecules and their measured Mean shoot height increase (%).
Answer format: numeric, % implied, no suffix.

Sample records with Mean shoot height increase (%):
>>> recorded_result("C=CCOC(=O)OC1=C(c2c(C)cc(C)cc2C)C(=O)N(C)C12CCN(OC)CC2")
10.2
>>> recorded_result("CCOC(=O)OC1=C(c2c(C)cc(C)cc2OC)C(=O)NC12CCN(OC)CC2")
8.9

[ask] Answer with reported Mean shoot height increase (%) of CCOC(=O)OC1=C(c2c(C)cc(Br)cc2CC)C(=O)N(C)C12CCN(OC)CC2
[reply] 8.1

[ask] Answer with reported Mean shoot height increase (%) of CCOC(=O)OC1=C(c2c(C)cc(Cl)cc2OC)C(=O)N(C)C12CCN(OC)CC2
[reply] 6.6
